Data provenance: PubChem BioAssay (NCI)

assay: NCI Yeast Anticancer Drug Screen. Data for the mec2-1 strain (AID 157); conditions: S. cerevisiae mec2-1 strain, at 50.0 µM, stronger effect = higher value
This is part of a sample that, as a whole, favours compounds with a hit. Of some 79,000 tested, about 15% had one in any assay. Activity calls are given as the source filed them. No stated cut-off is given here; in the data, active means growth inhibition above about 70%; inactive means the rest.
In this section, each of the compounds is paired with its reported growth inhibition.

Some entries whose results are on file:
[
  {
    "compound": "CCC(CC)(C1CCC(=O)CC1)C1CCC(=O)CC1",
    "value_measured": "-3.55% (inactive)"
  },
  {
    "compound": "Cc1nc2ccc(Br)cc2c(=O)n1-c1ccc(N=Cc2ccccc2Cl)cc1",
    "value_measured": "16.5% (inactive)"
  },
  {
    "compound": "O=C(O)CCC(C(=O)O)N(Cc1ccccc1)Cc1ccccc1 (stereo not drawn)",
    "value_measured": "-0.4% (inactive)"
  },
  {
    "compound": "CC(C)C(Br)C(=O)N1CCOCC1 (stereo not drawn)",
    "value_measured": "-17.9% (inactive)"
  }
]

// growth inhibition lookup, key: NC(=O)COc1ccc(Cl)cc1Cl -0.5% (inactive)

// growth inhibition lookup, key: Cc1cccc(O)c1O 0.15% (inactive)

// growth inhibition lookup, key: COC(=O)c1[nH]c(=O)c(C#N)c(C(=O)OC)c1-c1ccc(F)cc1 -24.5% (inactive)

====

test: NCI Yeast Anticancer Drug Screen. Data for the rad50 strain (AID 155);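 further: 0% = growth of vehicle-only cultures of the same strain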; settings: S. cerevisiae rad50 strain growth inhibition; at 50.0 µM; stronger effect = higher value
About 79,000 compounds went through this panel and 15% of them were active in at least one assay; those are over-represented in the sample as a whole.
readout_label: growth inhibition (%)
Provide the reading as a plain figure in %.

Some entries whose results are on file:
[
  {
    "compound": "O=C(c1cccc(Cl)c1)c1cccc(Cl)c1",
    "unit_of_measurement": "%",
    "value_measured": 1.2
  },
  {
    "compound": "CSCCC(NC(c1ccccc1)c1ccccc1)[P+](=O)O (stereo not given)",
    "unit_of_measurement": "%",
    "value_measured": -53.4
  },
  {
    "compound": "CC1(CO)CCCC2(C)C3=CC(=O)CCC3CCC12 (stereo not given)",
    "unit_of_measurement": "%",
    "value_measured": -6.7
  },
  {
    "compound": "CC(=O)OCCOc1ccc(C(C)(C)C)cc1",
    "unit_of_measurement": "%",
    "value_measured": 45
  },
  {
    "compound": "Nc1cc2c(cc1/C=C1\\CCNC1=O)OCO2",
    "unit_of_measurement": "%",
    "value_measured": -5.65
  }
]

Let us examine a further case.
// growth inhibition lookup, key: CC(=O)[C@@]1(c2ccccc2)N(C(=O)c2ccccc2)[C@@]1(C)C(=O)c1ccccc1 22.1

====

assay: NCI Yeast Anticancer Drug Screen. Data for the cln2 rad14 strain (AID 165);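 further: 0% = growth equal to vehicle treated cultures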; settings: S. cerevisiae cln2 rad14 strain, at 50.0 µM, stronger effect = higher value
About 79,000 compounds went through this panel and 15% of them were active in at least one assay; those are over-represented in the sample as a whole.
readout_label: growth inhibition (%)
Provide the reading as a plain figure in %.

// growth inhibition lookup, key: CC(CO)C1C[C@H](O)[C@@]2(C)CC(=O)C=C(CO)[C@@H]2C1 (stereo partly specified) 25.9

// growth inhibition lookup, key: CNC(=O)c1cc(OC)ccc1O -32.3

// growth inhibition lookup, key: CCCCOC(=O)c1ccc(OCCCC)cc1 13.2

// growth inhibition lookup, key: COc1cc(/C=C2\Cc3ccccc3C2=O)cc(OC)c1OC 18.3

// growth inhibition lookup, key: CC1=Nc2ccccc2N2C1=CC1=C(C(=O)c3cc4ccccc4cc3C1=O)C2C (stereo unspecified) 24.2

// growth inhibition lookup, key: CC(=O)Nc1ccc(S(=O)(=O)SC(F)(F)F)cc1 24.7

====

assay: NCI Yeast Anticancer Drug Screen. Data for the mlh1 rad18 strain (AID 175); conditions: S. cerevisiae mlh1 rad18 strain growth inhibition; at 50.0 µM; stronger effect = higher value
About 79,000 compounds went through this panel and 15% of them were active in at least one assay; those are over-represented in the sample as a whole.
readout_label: growth inhibition (%)
Provide the reading as a plain figure in %.

Some entries whose results are on file:
[
  {
    "molecule": "CCCC(=O)C(N)Cc1ccccc1 (stereo unspecified)",
    "growth inhibition (%)": -6.3
  },
  {
    "molecule": "COc1cc(C(=O)OC2CC3CN(CCc4c[nH]c5ccccc45)CC3CC2OC)cc(OC)c1OC (stereo unspecified)",
    "growth inhibition (%)": 45.7
  },
  {
    "molecule": "CNC(=O)c1ccccc1C(=O)c1ccccc1OC",
    "growth inhibition (%)": 2.15
  },
  {
    "molecule": "O=c1c2cc([N+](=O)[O-])ccc2n2n1Cc1ccccc1CC2",
    "growth inhibition (%)": -16.4
  },
  {
    "molecule": "CC(C)(C)c1ccn[nH]1.CC(C)(C)c1ccn[nH]1.[Cl-].[Cl-].[O]=[V][O-]",
    "growth inhibition (%)": -12.8
  }
]

Let us examine a further case.
// growth inhibition lookup, key: Cc1ccc(NC(=O)CC#N)c(C)c1 4

====

In this section, each of the compounds is paired with its reported growth inhibition.
assay: NCI Yeast Anticancer Drug Screen. Data for the sgs1 mgt1 strain (AID 161);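 further: 0% = growth of cultures given vehicle only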; conditions: S. cerevisiae sgs1 mgt1 strain, at 50.0 µM, stronger effect = higher value
The panel holds about 79,000 compounds, 15% with a hit somewhere; the sample as a whole holds those more often.
Provide the reading as a plain figure in %.

Some entries whose results are on file:
[
  {
    "compound": "CC(=O)Nc1ccccc1N",
    "value_measured": -2.85
  },
  {
    "compound": "O=[N+]([O-])c1ccc(Cl)c(F)c1Cl",
    "value_measured": -0.2
  },
  {
    "compound": "Cc1oc([N+](=O)[O-])cc1C(=O)O",
    "value_measured": -1.65
  },
  {
    "compound": "NS(=O)(=O)c1ccc(N=Nc2nc3[nH]c(=O)[nH]c(=O)c3[nH]2)cc1",
    "value_measured": 3.05
  }
]

// growth inhibition lookup, key: COc1cc(C[S+]2CCCC2)c(SC)cc1C[S+]1CCCC1 40.2

// growth inhibition lookup, key: C=C(CCCC(=C)C(N)=O)C(N)=O -12.1

// growth inhibition lookup, key: CCN(CC)CC(O)Cn1cnc2c(SC)ncnc21 (configuration not stated) -2.95

====

Assay: NCI Yeast Anticancer Drug Screen. Data for the sgs1 mgt1 strain (AID 161);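 further: 0% = growth of cultures given vehicle only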
Conditions: S. cerevisiae sgs1 mgt1 strain, at 50.0 µM, stronger effect = higher value
Method: Growth inhibition of yeast strains with defined genetic alterations is measured as a screen for potential anti-cancer activity. Selected strains with alterations in DNA damage repair or cell cycle control were exposed to compounds and growth inhibition was measured relative to vehicle treated controls. The strain used in this assay is sgs1 mgt1
This is part of a sample that, as a whole, favours compounds with a hit. Of some 79,000 tested, about 15% had one in any assay.
readout_label: growth inhibition (%)
Provide the reading as a plain figure in %.

Some entries whose results are on file:
[
  {
    "compound": "CCCCCCC(O)C/C=C\\CCCCCCCCO (stereo unspecified)",
    "value_measured": 13.3
  },
  {
    "compound": "c1cnn([B-]2(n3cccn3)n3ccc[n+]3[B-](n3cccn3)(n3cccn3)n3ccc[n+]32)c1",
    "value_measured": 9.2
  },
  {
    "compound": "COC(=O)NN1C(C)=C(C(=O)OC)C2(C#N)C(C(=O)OC)=C(C)N(NC(=O)OC)C12N (stereo unspecified)",
    "value_measured": -56
  },
  {
    "compound": "COC(=O)C1CC(c2ccc(Cl)cc2)=NO1 (stereo unspecified)",
    "value_measured": 8.5
  },
  {
    "compound": "O=[N+]([O-])c1ccc(SC2=NCCCN2)c(Cl)c1",
    "value_measured": 33.9
  }
]

Let us examine a further case.
// growth inhibition lookup, key: C[Si]1(C)CC[Si](C)(C)OS(=O)(=O)O1 -4.75

====

assay: NCI Yeast Anticancer Drug Screen. Data for the rad50 strain (AID 155);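 further: 0% = growth of vehicle-only cultures of the same strain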; details: S. cerevisiae rad50 strain growth inhibition; at 50.0 µM
About 79,000 compounds went through this panel and 15% of them were active in at least one assay; those are over-represented in the sample as a whole. Active and inactive are the calls of the source. Cut-off read from the data, not from the text of the source: active = growth inhibition above about 70%; inactive = the rest.
Respond only with the outcome that fits, drawn from Y for active, N for inactive

[
  {
    "molecule": "NC(=S)N/N=C(\\c1ccccc1)c1cccc2ccccc12",
    "class_name": "N"
  },
  {
    "molecule": "N#C/C(=C\\N1CC(=O)NC1=S)C(N)=O",
    "class_name": "N"
  },
  {
    "molecule": "CC[CH2][Sn]([CH2]CC)([O]C(=O)c1cccnc1SC)[O][Sn]([CH2]CC)([CH2]CC)[O]C(=O)c1cccnc1SC",
    "class_name": "Y"
  }
]

Per the records of this test, what outcome belongs to NC(=O)CC(Nc1ncc2c(n1)-c1ccccc1OC2)C(=O)O (stereo unspecified) ? N

Per the records of this test, what outcome belongs to CCOc1ccc(S(=O)(=O)OCC)cc1 ? N

Per the records of this test, what outcome belongs to CCOC(=O)CNc1nc(Cl)nc(NCC(=O)OCC)n1 ? N
